Assayed target: recombinant human MGAT2 enzyme (Homo sapiens, UniProt Q3SYC2)
Construct: made in house; host or cells: CHO-K1 (Jump-In CHO-K1 Kit, Life Technologies); microsomal fraction used as the enzyme solution
Sequence (Q3SYC2 whole entry): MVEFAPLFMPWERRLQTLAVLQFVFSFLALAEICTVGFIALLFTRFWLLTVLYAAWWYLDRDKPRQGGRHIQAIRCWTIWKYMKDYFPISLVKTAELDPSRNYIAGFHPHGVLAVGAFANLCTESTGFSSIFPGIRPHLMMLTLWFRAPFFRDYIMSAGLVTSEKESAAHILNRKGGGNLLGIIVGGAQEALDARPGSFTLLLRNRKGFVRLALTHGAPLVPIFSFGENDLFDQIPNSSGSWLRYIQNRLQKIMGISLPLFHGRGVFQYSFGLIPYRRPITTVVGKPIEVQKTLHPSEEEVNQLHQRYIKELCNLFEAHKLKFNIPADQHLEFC
Assay notes: Test for human MGAT2 activity inhibitory action (14C-oleoyl CoA, recombinant enzyme microsomes)
Format: biochemical
Set-up: key: % inhibition = {1−(C−B)/(A−B)}×100, B = 10 μM Comparative Example 1
Assay context: Table 5; relative to Comparative Example 1 measured in the same run
Counter-ions that a name gives are not always drawn.
Attribute measured: Potency relative to Comparative Example 1 (higher = more potent)
The answer should be written as a number, with no unit following it.

Entry under review: C[C@@H](CNCCC(=O)N1CCc2nc(SC3CCC3)n(-c3ccccc3)c(=O)c2C1)c1ccccc1 . Reported Potency relative to Comparative Example 1 (higher = more potent)? 205

Entry under review: C[C@H](CNCCC(=O)N1CCc2nc(SC3CCC3)n(-c3ccccc3)c(=O)c2C1)c1ccccc1 [Example 37, trifluoroacetate] . Reported Potency relative to Comparative Example 1 (higher = more potent)? 273

Entry under review: O=C(CCNCCCCCOc1ccc(C(F)(F)F)cc1)N1CCc2nc(SC3CCC3)n(-c3ccccc3)c(=O)c2C1 [Example 33, trifluoroacetate] . Reported Potency relative to Comparative Example 1 (higher = more potent)? 228

Entry under review: O=C(CCNCCc1ccc(O)cc1)N1CCc2nc(SC3CCC3)n(-c3ccccc3)c(=O)c2C1 [Example 30, trifluoroacetate] . Reported Potency relative to Comparative Example 1 (higher = more potent)? 69

* * *

Field: Potency relative to Comparative Example 1 (higher = more potent). Provide a value for each of the compounds that follow.
Assayed target: recombinant human MGAT2 enzyme (Homo sapiens, UniProt Q3SYC2)
Construct: made in house; host or cells: CHO-K1 (Jump-In CHO-K1 Kit, Life Technologies); microsomal fraction used as the enzyme solution
Assay notes: Test for human MGAT2 activity inhibitory action (14C-oleoyl CoA, recombinant enzyme microsomes)
Assay type: biochemical
Set-up: key: % inhibition = {1−(C−B)/(A−B)}×100, B = 10 μM Comparative Example 1
Assay context: Second Test (Table 4); relative to Comparative Example 1
Structures can show the parent of a compound that is named as a salt.
The answer should be written as a number, with no unit following it.

Entry under review: O=C(CCNCc1ccccc1)N1CCc2nc(SC3CCC3)n(C[C@H]3CCCO3)c(=O)c2C1 [Example 13, trifluoroacetate] . Reported Potency relative to Comparative Example 1 (higher = more potent)? 44

Entry under review: O=C(CCNCc1ccccc1)N1CCc2nc(SC3CCC3)n(CC3CCC3)c(=O)c2C1 [Example 12, trifluoroacetate] . Reported Potency relative to Comparative Example 1 (higher = more potent)? 216

Entry under review: O=C(CCNCc1ccccc1)N1CCc2nc(SC3CCC3)n(C3CCCC3)c(=O)c2C1 [Example 15, trifluoroacetate] . Reported Potency relative to Comparative Example 1 (higher = more potent)? 129

Entry under review: O=C(CCNCc1ccsc1)N1CCc2nc(SC3CCC3)n(-c3ccccc3)c(=O)c2C1 . Reported Potency relative to Comparative Example 1 (higher = more potent)? 173

Entry under review: O=C(CCNCc1cc2ccccc2[nH]1)N1CCc2nc(SC3CCC3)n(-c3ccccc3)c(=O)c2C1 [Example 21, trifluoroacetate] . Reported Potency relative to Comparative Example 1 (higher = more potent)? 246

Entry under review: O=C(CCNCCc1c[nH]c2ccccc12)N1CCc2nc(SC3CCC3)n(-c3ccccc3)c(=O)c2C1 . Reported Potency relative to Comparative Example 1 (higher = more potent)? 193

Entry under review: O=C(CCNCc1ccccc1)N1CCc2nc(SC3CCC3)n(Cc3ccco3)c(=O)c2C1 [Example 14, trifluoroacetate] . Reported Potency relative to Comparative Example 1 (higher = more potent)? 65

* * *

Assayed target: recombinant human MGAT2 enzyme (Homo sapiens, UniProt Q3SYC2)
Construct: made in house; host or cells: CHO-K1 (Jump-In CHO-K1 Kit, Life Technologies); microsomal fraction used as the enzyme solution
Assay notes: Test for human MGAT2 activity inhibitory action (14C-oleoyl CoA, recombinant enzyme microsomes)
Type: biochemical
Set-up: key: % inhibition = {1−(C−B)/(A−B)}×100, B = 10 μM Comparative Example 1
Assay context: Second Test (Table 4); relative to Comparative Example 1
Structures can show the parent of a compound that is named as a salt.
Attribute measured: Potency relative to Comparative Example 1 (higher = more potent)
The answer should be written as a number, with no unit following it.

Entry under review: O=C(CCNCc1csc2ccccc12)N1CCc2nc(SC3CCC3)n(-c3ccccc3)c(=O)c2C1 [Example 20, trifluoroacetate] . Reported Potency relative to Comparative Example 1 (higher = more potent)? 300

Entry under review: [2H]c1c([2H])c([2H])c(-n2c(SC3CCC3)nc3c(c2=O)CN(C(=O)CCNCc2ccccc2)CC3)c([2H])c1[2H] [Example 11, trifluoroacetate] . Reported Potency relative to Comparative Example 1 (higher = more potent)? 166

Entry under review: O=C(CCNCc1ccccc1F)N1CCc2nc(SC3CCC3)n(-c3ccccc3)c(=O)c2C1 . Reported Potency relative to Comparative Example 1 (higher = more potent)? 134

Entry under review: COc1ccccc1CNCCC(=O)N1CCc2nc(SC3CCC3)n(-c3ccccc3)c(=O)c2C1 [Example 17, trifluoroacetate] . Reported Potency relative to Comparative Example 1 (higher = more potent)? 148

Entry under review: O=C(CCNCc1ccc(C(F)(F)F)cc1)N1CCc2nc(SC3CCC3)n(-c3ccccc3)c(=O)c2C1 [Example 19, trifluoroacetate] . Reported Potency relative to Comparative Example 1 (higher = more potent)? 352

Entry under review: O=C(CCCNCc1ccc(C(F)(F)F)cc1)N1CCc2nc(SC3CCC3)n(-c3ccccc3)c(=O)c2C1 . Reported Potency relative to Comparative Example 1 (higher = more potent)? 79

Entry under review: O=C(CCNCc1ccc(OC(F)(F)F)cc1)N1CCc2nc(SC3CCC3)n(-c3ccccc3)c(=O)c2C1 . Reported Potency relative to Comparative Example 1 (higher = more potent)? 221

* * *

Assayed target: recombinant human MGAT2 enzyme (Homo sapiens, UniProt Q3SYC2)
Construct: made in house; host or cells: CHO-K1 (Jump-In CHO-K1 Kit, Life Technologies); microsomal fraction used as the enzyme solution
Assay notes: Test for human MGAT2 activity inhibitory action (14C-oleoyl CoA, recombinant enzyme microsomes)
Type: biochemical
Assay context: First Test (Table 3); read-out: IC50
Where a name gives a salt, the structure may show the parent alone.
Field: pIC50. Provide a value for each of the compounds that follow.
# pIC50 is unitless: minus log10 of the molar concentration; print number only

Entry under review: O=C(CNCc1ccc(OCc2ccc(C(F)(F)F)cc2)cc1)N1CCc2nc(SC3CCC3)n(-c3ccccc3)c(=O)c2C1 [Example 6, hydrate trifluoroacetate] . Reported pIC50? 8.80

Entry under review: O=C(CNCc1ccc(Cl)cc1)N1CCc2nc(SC3CCC3)n(-c3ccccc3)c(=O)c2C1 [Example 3, trifluoroacetate] . Reported pIC50? 8.43

Entry under review: O=C(CNCc1ccc(C(F)(F)F)cc1)N1CCc2nc(SC3CCC3)n(-c3ccccc3)c(=O)c2C1 [Example 1, trifluoroacetate] . Reported pIC50? 8.39

Entry under review: O=C(CNCc1cccc(Cl)c1)N1CCc2nc(SC3CCC3)n(-c3ccccc3)c(=O)c2C1 . Reported pIC50? 8.54

Entry under review: O=C(CNCCc1ccccc1)N1CCc2nc(SC3CCC3)n(-c3ccccc3)c(=O)c2C1 [Example 8, trifluoroacetate] . Reported pIC50? 8.46

Entry under review: COc1ccc(CNc2nc3c(c(=O)n2-c2ccccc2)CN(C(=O)Nc2ccc(C(F)(F)F)cc2)CC3)cc1 [Comparative Example 1, reference compound] . Reported pIC50? 6.65

Entry under review: O=C(CNCCOc1ccc(F)c(F)c1)N1CCc2nc(SC3CCC3)n(-c3ccccc3)c(=O)c2C1 [Example 9, trifluoroacetate] . Reported pIC50? 8.41

Entry under review: O=C(CNCCCc1ccccc1)N1CCc2nc(SC3CCC3)n(-c3ccccc3)c(=O)c2C1 [Example 2, trifluoroacetate] . Reported pIC50? 8.89

Entry under review: O=C(CNCc1ccc(COc2ccccc2)cc1)N1CCc2nc(SC3CCC3)n(-c3ccccc3)c(=O)c2C1 [Example 7, trifluoroacetate] . Reported pIC50? 8.64

Entry under review: O=C(CCNCc1ccccc1)N1CCc2nc(SC3CCC3)n(-c3ccccc3)c(=O)c2C1 [Example 10, trifluoroacetate] . Reported pIC50? 9.09

* * *

Assayed target: recombinant human MGAT2 enzyme (Homo sapiens, UniProt Q3SYC2)
Construct: made in house; host or cells: CHO-K1 (Jump-In CHO-K1 Kit, Life Technologies); microsomal fraction used as the enzyme solution
Assay notes: Test for human MGAT2 activity inhibitory action (14C-oleoyl CoA, recombinant enzyme microsomes)
Type: biochemical
Assay context: Table 5, Examples 25 to 60, same method; read-out: IC50
Where a name gives a salt, the structure may show the parent alone.
Attribute measured: pIC50
# pIC50 is unitless: minus log10 of the molar concentration; print number only

Param readout= pIC50; system= recombinant human MGAT2 enzyme (Homo sapiens, UniProt Q3SYC2); entry= C[C@H](CNCCC(=O)N1CCc2nc(SC3CCC3)n(-c3ccccc3)c(=O)c2C1)c1ccccc1 [Example 37, trifluoroacetate] ; returns value. 9.30

Param readout= pIC50; system= recombinant human MGAT2 enzyme (Homo sapiens, UniProt Q3SYC2); entry= C[C@H](NCCC(=O)N1CCc2nc(SC3CCC3)n(-c3ccccc3)c(=O)c2C1)c1ccccc1 [Example 42, trifluoroacetate] ; returns value. 8.92

Param readout= pIC50; system= recombinant human MGAT2 enzyme (Homo sapiens, UniProt Q3SYC2); entry= O=C(CCNC[C@H](O)c1ccc(F)cc1)N1CCc2nc(SC3CCC3)n(-c3ccccc3)c(=O)c2C1 [Example 43, trifluoroacetate] ; returns value. 8.60

Param readout= pIC50; system= recombinant human MGAT2 enzyme (Homo sapiens, UniProt Q3SYC2); entry= O=C(CNCCCCOc1ccc(F)cc1)N1CCc2nc(SC3CCC3)n(-c3ccccc3)c(=O)c2C1 [Example 52, trifluoroacetate] ; returns value. 8.77

Param readout= pIC50; system= recombinant human MGAT2 enzyme (Homo sapiens, UniProt Q3SYC2); entry= O=C(CCNCc1nc(Cc2ccccc2)no1)N1CCc2nc(SC3CCC3)n(-c3ccccc3)c(=O)c2C1 [Example 34, trifluoroacetate] ; returns value. 8.49

Param readout= pIC50; system= recombinant human MGAT2 enzyme (Homo sapiens, UniProt Q3SYC2); entry= O=C(CCNCCNc1ccccc1)N1CCc2nc(SC3CCC3)n(-c3ccccc3)c(=O)c2C1 ; returns value. 8.85

Param readout= pIC50; system= recombinant human MGAT2 enzyme (Homo sapiens, UniProt Q3SYC2); entry= O=C(CNCCCCCOC1CCCCC1)N1CCc2nc(SC3CCC3)n(-c3ccccc3)c(=O)c2C1 [Example 57, trifluoroacetate] ; returns value. 8.59

Param readout= pIC50; system= recombinant human MGAT2 enzyme (Homo sapiens, UniProt Q3SYC2); entry= O=C(CNCCCCCOC1CCC(F)(F)CC1)N1CCc2nc(SC3CCC3)n(-c3ccccc3)c(=O)c2C1 [Example 58, trifluoroacetate] ; returns value. 8.48

Param readout= pIC50; system= recombinant human MGAT2 enzyme (Homo sapiens, UniProt Q3SYC2); entry= O=C(CNCCCOc1ccc(F)cc1)N1CCc2nc(SC3CCC3)n(-c3ccccc3)c(=O)c2C1 [Example 50, trifluoroacetate] ; returns value. 8.43

Param readout= pIC50; system= recombinant human MGAT2 enzyme (Homo sapiens, UniProt Q3SYC2); entry= O=C(CCNCc1c(F)cccc1F)N1CCc2nc(SC3CCC3)n(-c3ccccc3)c(=O)c2C1 [Example 35, trifluoroacetate] ; returns value. 8.96

Param readout= pIC50; system= recombinant human MGAT2 enzyme (Homo sapiens, UniProt Q3SYC2); entry= O=C(CCNCC(O)COc1ccc(F)cc1)N1CCc2nc(SC3CCC3)n(-c3ccccc3)c(=O)c2C1 (centres unmarked) [Example 44, trifluoroacetate] ; returns value. 8.74
